subject of test: CD47 on the surface of Jurkat cells (human, UniProt Q08722 19-323)
assay info: cell-based or functional assay
measurement name: Apoptotic rate (%)
Give your result in % as a bare value.

Known Apoptotic rate (%) results, listed for orientation:
059-1.43.1 (antibody, mouse IgG1, V domains shown, also called 059-1.43.1 purified antibody) VH: QVQLQQSGAELVRPGASVTLSCKASGYTFTDYEMHWVKQTPVHGLEWIGAIDPETGGTAYNQKFKGKATLTADKSSSTAYMELRSLTSEDSAVYYCTRGTPYAMDYWGQGTSVTVSS VL: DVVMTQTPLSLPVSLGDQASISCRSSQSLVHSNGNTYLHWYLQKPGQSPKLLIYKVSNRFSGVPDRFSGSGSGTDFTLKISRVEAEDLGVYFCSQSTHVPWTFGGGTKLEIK	37
059-1.20.1 (antibody, mouse IgG1, V domains shown, also called 059-1.20.1 purified antibody) VH: EVQLQQSGPELVKPGASVNMSCKASGYTFTNYFLHWVKQKPGQGLEWIGYINPYNDGTNYNENFKGKATLTSDKSSSTAYMELSSLTSEDSAVYYCAKGGWFSMDYWGQGTSVTVSS VL: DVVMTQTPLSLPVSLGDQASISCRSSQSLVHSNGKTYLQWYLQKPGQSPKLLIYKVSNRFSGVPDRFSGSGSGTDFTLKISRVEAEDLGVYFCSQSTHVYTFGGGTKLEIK	33

Noted for 059-1.82.1 (antibody, mouse IgG3, V domains shown) VH: EVQLQQSGPELVKPGASVKMSCKASGYTFTNYVMHWVKQKPGQGLEWIGYINPYNDGTNYNEKFKGKATLTSDKSSSTAYMELSSLTSEDSAVYYCAKGGWFSMDYWGQGTSVTVSS VL: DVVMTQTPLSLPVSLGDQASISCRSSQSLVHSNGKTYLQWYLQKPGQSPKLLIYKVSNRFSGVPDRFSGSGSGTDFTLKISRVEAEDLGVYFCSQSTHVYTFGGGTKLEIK : its Apoptotic rate (%) reads 24

Noted for 059-1.30.1 (antibody, mouse IgG1, V domains shown, also called 059-1.30.1 purified antibody) VH: EVQLQQSGPELVKPGASVRMSCKASGYTFTNYVMHWVKQKPGQGLEWIGYINPYNDGTKYSEKFKGKATLTSDKSSITAYMELSSLTSEDSAVYYCAKGGLFTFDYWGQGTTLTVSS VL: DVVMTQTPLSLPVSLGDQASISCRSSQSLVHSKGNTYLHWYLQKPGQSPKLLIYRVSNRFSGVPDRFSGSGSGTDFTLKISRVEAEDLGVYFCSQSTHVPFTFGSGTKLEIK : its Apoptotic rate (%) reads 48

Noted for B6H12 (commercialized CD47 antibody, purchased from Abcam, catalog No. ab3283) (antibody) EVQLVESGGDLVKPGGSLKLSCAASGFTFSGYGMSWVRQTPDKRLEWVATITSGGTYTYYPDSVKGRFTISRDNAKNTLYLQIDSLKSEDTAIYFCARSLAGNAMDYWGQGTSVTVSSGGGGSGGGGSGGGGSDIVMTQSPATLSVTPGDRVSLSCRASQTISDYLHWYQQKSHESPRLLIKFASQSISGIPSRFSGSGSGSDFTLSINSVEPEDVGVYYCQNGHGFPRTFGGGTKLEIK : its Apoptotic rate (%) reads 8

Taken from patent US20220089727A1.
